All figures here come from ChEMBL document CHEMBL3433997.

- target: Hexose transporter 1 (Plasmodium falciparum) (UniProt O97467)
- assayDetails: ST_JUDE_LEISH: Cytotoxicity at 2uM final concentration against transgenic Leishmania Mexicana promastigotes LmPfHT that are glucose transport deficient and complemented with the Plasmodium falciparum hexose transporter. Activity is measured by DNA content using SYBR green in vitro
- Format: functional
This listing pairs compounds with measured inhibition.

compound | inhibition (%)
CCCCCCN1CCC(CNCc2cccc(Cl)c2)CC1 | 2.08
COc1cc(NC(=O)/C=C/c2ccccc2Cl)cc(OCCN2CCC(O)(c3ccccc3)CC2)c1 | 3.45
Cc1cc(C(=O)Nc2nc(-c3ccccn3)nc3ccsc23)no1 | 75.1
COc1ccc2nccc([C@@H](O)CN3CCC(NC(=O)C(c4cc5ccccc5o4)N4CCN(Cc5ccccc5)CC4)CC3)c2c1 (stereo not given in full) | 1.35
O=C(/C=C/c1ccc(Cl)c(Cl)c1)NCCCCCN1CCC(NC(=O)Nc2cccc(Cl)c2)CC1 | 4.71
COc1ccc2nccc([C@@H](O)CN3CCC(NCc4nc5c(OCc6ccccc6)cccc5[nH]4)CC3)c2c1 | 3.37
Cc1ccc(-c2ccc3c(c2)C=C(C(=O)NC2CCN(CCNC(=O)c4cccc(C(F)(F)F)c4)CC2)CCC3)cc1 | 7.43
O=C1COc2ccc(CNC3CCC(O)(CCc4ccnc5cc6c(cc45)OCCO6)CC3)nc2N1 (stereo not given) | 3.14
CC(Sc1nnc(-c2ccccc2Br)[nH]1)C(=O)Nc1ccc(F)cc1 (stereo not given) | 9.07
Cc1ccc(CN2CCCN(Cc3cccc(NC(=O)c4ccc(Cl)c(Cl)c4)c3)CC2)cc1 | -2.91
COc1ccc2[nH]ccc(=NN=CC=Cc3ccccc3)c2c1 | 2.19
CCOc1c(N2CCN(CCCCNC(=O)c3ccc(NC(=O)c4ccc(Cl)cc4)cc3)CC2)ccc2ccccc12 | 0.48
COc1ccc2nccc([C@@H](O)CN3CCC(NC/C=C/c4cccnc4)CC3)c2c1 | 2.98
CCc1cccc2sc(N3CCN(C(=O)c4ccc([N+](=O)[O-])o4)CC3)nc12 | 69.1
COc1cc(Cc2cnc(N)nc2N)cc(OCCCC(=O)O)c1OC | 1.62
O=C(NC1CCCC1)c1ccc(N2CCC(NCc3cc4cc(Cl)ccc4[nH]3)CC2)cc1 | 3.34
COc1cc2nccc(Nc3ccc(OCc4ccc(NC(C)=O)cc4)cc3)c2cc1OC | 7.36
CN(C)c1ccc(-c2ccc(C(=O)NC3CCN(Cc4ccccc4)CC3)s2)cc1 | 0.56
Cc1c(CNCCCNc2cc(=O)c3ccccc3[nH]2)sc(/C=N/O)c1Br | 3.79
CCSc1ccccc1COc1c(C)nc(N)nc1N | 6.09
